test system: LOS induced IL-6 production; test: LOS induced IL-6 production by PBMC (ELISA); type: cell-based, human; conditions: Homo sapiens; PBMC, 24 h LOS stimulation, mean ± SD of at least 3 donors, 0.15-40 μM tested
pIC50: −log10 of the molar value.
parameter-measured: pIC50

a. CCCCC1C(=O)N(c2ccccc2)N(c2ccc(O)cc2)C1=O (stereo not drawn)
b. CCCCC1(O)C(=O)N(c2ccccc2)N(c2ccc(O)cc2)C1=O (stereo not drawn) [4-OH-OPB, 4-Hydroxy-oxyphenbutazone]
Ask: Compare pIC50: is it lower for a or for b ? Record your answer as the label of the chosen record.
Reply: a
